Biological target: T1, rat CD47 (rat, UniProt P97829 19-303)
T1 construct: whole, on cells; also called CD47 on rat RBCs
T1 sequence (looked up): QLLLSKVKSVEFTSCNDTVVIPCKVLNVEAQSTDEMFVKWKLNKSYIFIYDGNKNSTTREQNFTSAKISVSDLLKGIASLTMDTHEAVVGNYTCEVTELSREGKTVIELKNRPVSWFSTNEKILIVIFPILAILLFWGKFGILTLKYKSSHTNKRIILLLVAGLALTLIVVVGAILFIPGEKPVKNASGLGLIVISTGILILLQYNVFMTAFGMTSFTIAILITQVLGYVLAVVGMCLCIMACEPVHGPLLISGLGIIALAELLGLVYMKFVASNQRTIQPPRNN
Assay: FACS, rat RBCs, supernatant 10 ng/ml
// reported mean fluorescence relative to chimera per item
No unit in the answer, please; the number alone is enough.

Would you please look over these solved cases?
- Binder: "Clone 21 (pVxK7b-037-hum21-LC / pVxK7b-037-hum21-HC) (antibody, human IgG1, kappa, V domains shown) VH: QVQLQESGPGLVKPSQTLSLTCTVSGYTFTNYYVFWVRQARGQRLEWIGDINPVNGDTNFNEKFKNRLTISKDTSKNQVVLTMTNMDPVDTATYYCARGGYTMDYWGQGTLVTVSS VL: AIQLTQSPSSLSASVGDRVTITCRSSQSLVHSNGNTYLHWYQQKPGQAPRLLIYKVSYRFSGVPDRFSGSGSGTDFTLKISRVEAEDVGVYYCSQNTHVPRTFGQGTKVEIKR"
  mean fluorescence relative to chimera: 2.8
- Binder: "chimeric antibody VxP037-01LC-Pro/VxP037-01HC-Pro (antibody, human IgG1, kappa, V domains shown, also called Chimera; VxP037-01LC/VxP037-01HC) VH: EVQLQQFGAELVKPGASMKLSCKASGYTFTNYYVFWVKQRPGQGLEWIGDINPVNGDTNFNEKFKNKATLTVDKSSTTTYLQLSSLTSEDSAVYYCTRGGYTMDYWGQGTLVTVSS VL: DVVMTQTPLSLSVSLGDQASISCRSSQSLVHSNGNTYLHWYLQKPGQSPKLLIYKVSYRFSGVPDRFSGSGSGTDFTLKISRVEAEDLGVYFCSQNTHVPRTFGQGTKVEIKR"
  mean fluorescence relative to chimera: 1

QUERY: Bench note: what mean fluorescence relative to chimera did Clone 24 (pVxK7b-037-hum24-LC / pVxK7b-037-hum24-HC) (antibody, human IgG1, kappa, V domains shown, also called Cl 24) VH: QVQLQESGPGLVKPGATVKISCKVSGYTFTNYYVFWVRQARGQRLEWIGDINPVNGDTNFNEKFKNRVTITADKSTSTAYMELSSLRSEDTAVYYCARGGYTMDYWGQGTLVTVSS VL: AIQLTQSPSSLSASVGDRVTITCRSSQSLVHSNGNTYLHWYQQKPGQAPRLLIYKVSYRFSGVPSRFSGSGSGTEFTLTISSLQPDDFATYYCSQNTHVPRTFGQGTKVEIKR show?
RESULT: 1.2
